- Test system: NCI-H522 lung
- Protocol Details: NCI-60 one-dose screen, 48 h
- Assay Conditions: 10 µM unless noted
The panel holds about 83,000 compounds, 20% with a hit somewhere; the sample as a whole holds those more often. The source made the active and inactive calls. Rule for the calls: active = growth percent below 10; inactive = the rest.
The categories you may choose from are active, inactive

Status in this test for "O=C1/C(=C\c2cccc(OCCCCCOc3ccc(Cl)cc3)c2)N=C2SCCCN12" ?
inactive

Status in this test for "CCc1cc2c(c3ccc(C(=O)CBr)cc13)CCCC2" ?
inactive

Status in this test for "COc1cc2c(Nc3ccc(Br)cc3F)ncnc2cc1OCC1CCN(C)CC1" ?
active

Status in this test for "COc1cccc(NC(=O)Nc2ccc(Nc3ncnc4sc5c(c34)CCN(C(=O)CCl)C5)cc2)c1" ?
inactive

Status in this test for "CC(C)n1c(NCCc2ccc(O)c(O)c2)nc2c1c(=O)n(C)c(=O)n2C" ?
inactive

Status in this test for "C=C1C[C@H](O)[C@H](Br)C(C)(C)[C@@]12CCC(C)=C(Cl)C2" ?
inactive

Status in this test for "COc1ccc2c(OCc3nnc4ccc(-c5ccccc5)nn34)ccnc2c1" ?
inactive

Status in this test for "CN(C)C[C@@H]1CCn2cc(c3ccccc32)C2=C(C(=O)NC2=O)c2cn(c3ccccc23)CCO1" ?
active

Status in this test for "CC(C)(O)CC(=O)NCCn1ccc2ncnc(Nc3ccc(Oc4cccc(C(F)(F)F)c4)c(Cl)c3)c21" ?
active

Status in this test for "CCc1ccc(/C=C/c2ccc(O)c3ncccc23)[n+](C)c1" ?
active

Status in this test for "NC(=O)c1n[nH]n2c1nc(=O)c1c3c(sc12)CCCC3" ?
inactive

Status in this test for "O=C(O)c1ccc2c(c1)nc(Nc1cccc(Cl)c1)c1ccncc12" ?
active

Status in this test for "CCc1nc2cc(/C=C/C(=O)NO)ccc2c(=O)n1CCc1ccc(OC)cc1" ?
inactive

Status in this test for "NC1(C(=O)N[C@@H](CCO)c2ccc(Cl)cc2)CCN(c2ncnc3[nH]ccc23)CC1" ?
inactive

Status in this test for "CCCCCCCC(=O)SCC/C=C/[C@@H]1CC(=O)NCc2cccc(n2)C2=N[C@@](C)(CS2)C(=O)N[C@@H](C(C)C)C(=O)O1" ?
active

Status in this test for "O=S1(=O)OC(c2cc(Cl)c(O)c(Br)c2)(c2cc(Cl)c(O)c(Br)c2)c2ccccc21" ?
inactive

Status in this test for "COc1cnc2c(c1)C(=O)c1c-2n(CCCN2CCOCC2)c(=O)c2cc(Cl)ccc12" ?
inactive

Status in this test for NC(=O)N1N=C(c2ccc(Cl)cc2)CC1c1cn(-c2ccccc2)nc1-c1ccc(Cl)cc1 (stereo not given) ?
inactive

Status in this test for "COc1cnc2c(c1)C(=O)c1c-2n(CCCN2CCC(O)CC2)c(=O)c2cc(Cl)ccc12" ?
inactive

Status in this test for "N#Cc1c(NC(=O)c2ccco2)[n+]([O-])c2cc(F)c(F)cc2[n+]1[O-]" ?
inactive

====

- Test system: CAKI-1 renal
- Protocol Details: NCI-60 one-dose screen, 48 h (100 = growth as untreated, 0 = no growth, -100 = all killed)
- Assay Conditions: 10 µM unless noted
This is part of a sample that, as a whole, favours compounds with a hit. Of some 83,000 tested, about 20% had one in any assay.
Note to self: growth under 80% means class 1, ties and anything higher get class 0.

Could you please tell me whether growth recorded for "COC(=O)[C@]12CC[C@@H](C)[C@H](C)[C@@H]1C1=CC[C@@H]3[C@@]4(C)C(c5cnco5)=C[C@@](C)(CO)C4=CC[C@@]3(C)[C@]1(C)CC2" is less than 80%?
class 1

Could you please tell me whether growth recorded for "CC[C@H](Nc1ncnc2nc[nH]c12)c1nc2cccc(F)c2c(=O)n1-c1ccccc1" is less than 80%?
class 1

Could you please tell me whether growth recorded for "O=C(Cn1cncn1)Nc1ccc(-c2nc3ccccc3s2)cc1" is less than 80%?
class 0

Could you please tell me whether growth recorded for "Cc1cc(Nc2cc(N3CCN(C)CC3)nc(Sc3ccc(NC(=O)C4CC4)cc3)n2)n[nH]1" is less than 80%?
class 1

Could you please tell me whether growth recorded for "COc1cc2c(Oc3ccc(NC(=O)C4(C(=O)Nc5ccc(F)cc5)CC4)cc3F)ccnc2cc1OCCCN1CCOCC1" is less than 80%?
class 1

Could you please tell me whether growth recorded for "COc1ccc2c(CCCC(c3ccccc3)c3ccccc3)c3[n+](cc2c1OC)CCc1cc2c(cc1-3)OCO2" is less than 80%?
class 1
